src = the Kinase Knowledgebase extract (Sharma et al. 2016)

# Experimental Target: EGFR (human) (UniProt P00533)
# Sequence (P00533 whole entry, looked up): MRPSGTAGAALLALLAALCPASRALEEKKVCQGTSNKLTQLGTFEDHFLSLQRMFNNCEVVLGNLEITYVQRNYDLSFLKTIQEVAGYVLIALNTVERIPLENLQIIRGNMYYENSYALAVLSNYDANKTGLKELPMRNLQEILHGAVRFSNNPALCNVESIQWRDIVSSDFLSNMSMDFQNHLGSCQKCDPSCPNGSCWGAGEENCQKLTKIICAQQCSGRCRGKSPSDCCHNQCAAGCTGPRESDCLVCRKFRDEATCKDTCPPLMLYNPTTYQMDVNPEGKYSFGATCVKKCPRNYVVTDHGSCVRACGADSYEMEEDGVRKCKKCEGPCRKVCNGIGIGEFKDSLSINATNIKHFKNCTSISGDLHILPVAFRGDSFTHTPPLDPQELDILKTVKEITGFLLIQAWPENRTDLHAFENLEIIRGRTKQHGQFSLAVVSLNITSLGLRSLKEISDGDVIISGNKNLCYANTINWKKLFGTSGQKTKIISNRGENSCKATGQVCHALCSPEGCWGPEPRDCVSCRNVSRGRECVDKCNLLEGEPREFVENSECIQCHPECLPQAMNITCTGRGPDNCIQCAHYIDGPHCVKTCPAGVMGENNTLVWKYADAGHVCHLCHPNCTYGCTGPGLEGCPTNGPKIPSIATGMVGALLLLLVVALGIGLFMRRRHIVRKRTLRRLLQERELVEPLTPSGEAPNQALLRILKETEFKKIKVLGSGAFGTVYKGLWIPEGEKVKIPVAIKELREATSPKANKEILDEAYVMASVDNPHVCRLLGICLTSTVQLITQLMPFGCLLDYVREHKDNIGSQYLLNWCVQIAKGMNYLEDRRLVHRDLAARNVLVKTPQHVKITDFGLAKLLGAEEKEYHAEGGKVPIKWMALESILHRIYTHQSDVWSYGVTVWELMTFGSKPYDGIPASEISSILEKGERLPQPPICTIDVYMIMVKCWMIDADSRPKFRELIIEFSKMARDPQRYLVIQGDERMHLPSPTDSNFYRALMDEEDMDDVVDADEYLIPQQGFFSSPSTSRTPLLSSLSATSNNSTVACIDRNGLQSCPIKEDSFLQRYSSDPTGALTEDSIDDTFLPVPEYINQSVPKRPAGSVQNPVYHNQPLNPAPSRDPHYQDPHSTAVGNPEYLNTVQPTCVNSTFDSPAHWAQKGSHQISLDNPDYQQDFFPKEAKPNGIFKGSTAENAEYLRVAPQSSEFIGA
Endpoint: IC50
Include the unit right after the number.

Given the compound Cc1c(NC(=O)OC[C@@H]2COCCN2)cn2ncnc(Nc3ccc4c(cnn4Cc4cccc(F)c4)c3)c12 and test system EGFR (human) (UniProt P00533), the measured IC50 is 22 nM

###

# Experimental Target: ROCK2 (human)
# Experiment Notes: Assessment of ROCK2 Kinase Activity using IMAP Assay
Endpoint: pIC50
When answering, recall that pIC50 equals minus log10 of the concentration in mol/L, and write that number alone.

The compound CN1CCc2ccc(NC(=O)c3cccc(CNC(=O)c4ccc(-c5csnn5)cc4)c3)cc2C1 , tested on ROCK2 (human), showed pIC50 of 8.34

###

# Experimental Target: PIK3CA (human), P42336 [Wild-Type]
# Sequence (P42336 whole entry, looked up): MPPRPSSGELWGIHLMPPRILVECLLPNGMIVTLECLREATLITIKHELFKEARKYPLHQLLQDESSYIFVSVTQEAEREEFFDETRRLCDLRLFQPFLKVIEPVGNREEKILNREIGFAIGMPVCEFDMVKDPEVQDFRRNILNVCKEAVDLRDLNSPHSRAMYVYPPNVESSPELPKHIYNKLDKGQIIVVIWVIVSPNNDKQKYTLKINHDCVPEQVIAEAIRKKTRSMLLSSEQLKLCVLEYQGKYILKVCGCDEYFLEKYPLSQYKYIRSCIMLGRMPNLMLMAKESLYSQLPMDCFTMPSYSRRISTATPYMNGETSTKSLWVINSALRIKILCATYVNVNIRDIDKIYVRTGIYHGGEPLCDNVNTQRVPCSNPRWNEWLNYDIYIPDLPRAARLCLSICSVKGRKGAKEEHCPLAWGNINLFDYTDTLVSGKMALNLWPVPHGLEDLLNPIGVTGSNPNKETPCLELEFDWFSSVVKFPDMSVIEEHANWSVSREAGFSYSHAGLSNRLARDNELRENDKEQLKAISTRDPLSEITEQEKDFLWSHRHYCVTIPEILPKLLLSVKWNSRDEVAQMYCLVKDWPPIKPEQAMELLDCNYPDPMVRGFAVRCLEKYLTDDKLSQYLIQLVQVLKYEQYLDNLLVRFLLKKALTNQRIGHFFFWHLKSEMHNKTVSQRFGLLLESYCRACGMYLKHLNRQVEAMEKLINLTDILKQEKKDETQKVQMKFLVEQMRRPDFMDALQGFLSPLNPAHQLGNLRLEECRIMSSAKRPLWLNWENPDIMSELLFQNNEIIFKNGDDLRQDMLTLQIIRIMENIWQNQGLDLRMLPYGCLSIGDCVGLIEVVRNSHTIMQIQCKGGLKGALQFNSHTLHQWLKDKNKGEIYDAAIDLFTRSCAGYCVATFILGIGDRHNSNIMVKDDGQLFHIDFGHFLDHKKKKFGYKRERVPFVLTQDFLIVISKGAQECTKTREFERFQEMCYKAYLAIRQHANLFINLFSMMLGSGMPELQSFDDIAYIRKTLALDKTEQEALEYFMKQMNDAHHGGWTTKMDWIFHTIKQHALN
# Experiment Notes: Assessment of Proliferation of NZB5 Cells Expressing Wild-Type PIK3CA Kinase
Endpoint: pIC50
# pIC50: negative log10 of molar concentration; output just the value

response.value for Oc1cccc2c1nc(C(F)F)n2-c1nc(N2CCOCC2)cc(N2CCOCC2)n1 (field: pIC50) = 7.00

###

Measured pIC50 values are reported for all entries that follow.
# Experimental Target: UniProtKB P00533
# Condition Set: a431
When answering, recall that pIC50 equals minus log10 of the concentration in mol/L, and write that number alone.

Line Notation	pIC50
COc1cc(OC)c2c(=O)n(-c3cccc(C(=O)NC4CCCC4)c3)ccc2c1	4.82

# context switch: different compound, same pIC50
Item: COc1cc(O)c2c(=O)n(-c3cccc(C(=O)NC4CCCC4)c3)ccc2c1 | pIC50: 5.65

###

# Experimental Target: EGFR (human) (UniProt P00533)
# Condition Set: a431
Endpoint: IC50 (µM)
Give just the number in µM; leave the unit off.

Quick note, IC50 for Nc1nc(Nc2ccc(Cl)cc2F)c2cc(Cc3cccc4ccccc34)[nH]c2n1 landed at 46.7

Recorded result, Cc1ccccc1Cc1cc2c(Nc3ccc(Cl)cc3)nc(N)nc2[nH]1 , IC50: 5.6

###

# Experimental Target: CDK2 (human) (UniProt P24941)
# Experiment Notes: Enzyme Assay
Class membership depends on IC50 alone; the intervals are bottom end: < 50 nM; midrange: ≥ 50 nM and < 500 nM; top end: ≥ 500 nM

Compound	Category
COC(=O)c1ccc2nc(-c3cc(-c4ccncc4)n[nH]c3=O)[nH]c2c1	midrange
CS(=O)(=O)N1CCC(Nc2ncc(C(=O)c3c(O)ccc(F)c3F)c(N)n2)CC1	bottom end
CN(C)CCOc1ccc(Nc2nc(N)c(C(=O)c3ccc4c(c3)OCCO4)s2)cc1	top end
Nc1nccc(-c2c3c(O)ccnc3n3c(N)nccc23)n1	midrange
CCN1CCN(c2ccc(O)c(-c3ccnc(N)n3)c2)CC1	top end

Categorize the following entry: C#CCc1c(C2CCCNC2)nc2c(-c3cnn(C)c3)cnn2c1N (stereo unspecified)
top end

Could you tell me which band CCCOc1ccc(CN/C=C2\C(=O)NC(=O)c3ccc(Br)cc32)cc1O belongs to?
top end

Sort into band: Cc1n[nH]c2cnc(-c3cncc(OC[C@@H](N)Cc4cccc(C(F)(F)F)c4)c3)cc12
midrange

Class label required: CC(=O)Nc1ccc(Nc2ncc3c(n2)-c2c(c(C(N)=O)nn2C)CC3)cc1
bottom end

For the record CN1CCN(c2ccc(Nc3nccc(-c4cnn5nc(-c6ccc(F)cc6)ccc45)n3)cc2)CC1 , report the class its IC50 corresponds to.
top end
